// provenance: patent US7842695B2

Observed pIC50 values for 5-HT2A receptors (UniProt P14842) are listed in what follows.
Bear in mind: pIC50 is minus log10 of a mol/L concentration; give just that figure.

A selection of reference data follows.
COc1ccc(-c2ccc(-n3ncc(CN)c3-c3ccco3)cc2)cc1 [Example 584] ... 7.74
COc1ccc(-c2c(CN3CCN(CCN(C)C)CC3)cnn2-c2ccc(-c3ccc(F)cc3)cc2)cc1 [Example 607] ... 7.54
CCN(CC)Cc1cnn(-c2ccc(-c3cccc(F)c3)cc2)c1-c1ccco1 [Example 606] ... 7.57
COc1ccc(-c2ccc(-n3ncc(CN4CCN(C)CC4)c3-c3ccccc3F)cc2)cc1OC [Example 644] ... 7.31
CCN1CCN(Cc2cnn(-c3ccc(-c4ccc(OC)cc4)cc3)c2-c2ccco2)CC1 [Example 551] ... 8.21

INPUT: Query the reported pIC50 for 5-HT2A receptors (UniProt P14842); item: CN1CCN(C(=O)c2cnn(-c3ccccc3)c2NC(=O)c2ccccc2F)CC1 [Example 640]
OUTPUT: 7.36

INPUT: How about CN(C)CCCN(C)Cc1cnn(-c2ccc(-c3ccc(F)cc3)cc2)c1-c1ccco1 [Example 659] ?
OUTPUT: 7.12

INPUT: How about COc1ccc(-c2ccc(-n3ncc(CN4CCN(C5CCCC5)CC4)c3-c3ccco3)cc2)cc1 [Example 552] ?
OUTPUT: 8.21
